CC50 overview
- Tested on: RG2
- assayText: Cytotoxicity against RG2 cells after 72 hrs by MTT assay
- Assay type: cell-based
- conditionContext: rat, rg2, 72 h
observedProperty: CC50 (µM)

> print(dat)
                                   compound  observedproperty  reportedrelation  testresult
1  O=c1[nH]c(=O)n([C@H]2C[C@H](O)[C@@H](CO)O2)cc1CCCCCF              CC50                 >         750
2  O=c1[nH]c(=O)n([C@H]2C[C@H](O)[C@@H](CO)O2)cc1CCCCF              CC50                 >         800
3  O=c1[nH]c(=O)n([C@H]2C[C@H](O)[C@@H](CO)O2)cc1CCCF              CC50                 >         450
4  O=c1[nH]c(=O)n([C@@H]2O[C@H](CO)[C@@H](O)[C@@H]2F)cc1CCCCF              CC50                 =         355
5  O=c1[nH]c(=O)n([C@@H]2O[C@H](CO)[C@@H](O)[C@@H]2F)cc1I [FIALURIDINE]              CC50                 =          80
6  Nc1nc(O)c2ncn(COC(CO)CO)c2n1 [GANCICLOVIR]              CC50                 =         377
7  O=c1[nH]c(=O)n([C@@H]2O[C@H](CO)[C@@H](O)[C@@H]2F)cc1CCCCCF              CC50                 >        1000
8  O=c1[nH]c(=O)n([C@@H]2O[C@H](CO)[C@@H](O)[C@@H]2F)cc1CCCF              CC50                 =         121

---

- Test system: RG2
- assayText: Selectivity index, ratio of cellular uptake in HSV1-tk gene overexpressing RG2TK+ cells to cellular uptake in RG2 cells
- Format: functional, Rattus norvegicus
Kindly return Y if reported Ratio is no lower than 10; return N if it is lower.

> print(dat)
                               samplesmiles  cat
1  O=c1[nH]c(=O)n([C@H]2C[C@H](O)[C@@H](CO)O2)cc1CCC[18F]    Y
2  O=c1[nH]c(=O)n([C@H]2C[C@H](O)[C@@H](CO)O2)cc1CCCCC[18F]    Y
3  O=c1[nH]c(=O)n([C@@H]2O[C@H](CO)[C@@H](O)[C@@H]2F)cc1CCCCC[18F]    N
4  O=c1[nH]c(=O)n([C@@H]2O[C@H](CO)[C@@H](O)[C@@H]2F)cc1CCC[18F]    N
5  O=c1[nH]c(=O)n([C@@H]2O[C@H](CO)[C@@H](O)[C@@H]2F)cc1CCCC[18F]    N
6  O=c1[nH]c(=O)n([C@H]2C[C@H](O)[C@@H](CO)O2)cc1CCCC[18F]    Y

---

- assayText: Lipophilicity, log P at pH 7.4
- Type: physicochemical
- conditionContext: buffer
Recorded logD split into classes bucket A (below -0.1), bucket B (-0.1 to below 0.7), bucket C (0.7 or more)

> print(dat)
                               samplesmiles       cat
1  O=c1[nH]c(=O)n([C@@H]2O[C@H](CO)[C@@H](O)[C@H]2F)cc1/C=C/[123I]  bucket C
2  O=c1[nH]c(=O)n([C@H]2C[C@H](O)[C@@H](CO)O2)cc1CCC[18F]  bucket A
3  O=c1[nH]c(=O)n([C@H]2C[C@H](O)[C@@H](CO)O2)cc1CCCC[18F]  bucket A
4  O=c1[nH]c(=O)n([C@@H]2O[C@H](CO)[C@@H](O)[C@@H]2F)cc1[125I]  bucket B
5  O=c1[nH]c(=O)n([C@@H]2O[C@H](CO)[C@@H](O)[C@@H]2F)cc1CCC[18F]  bucket A
6  O=c1[nH]c(=O)n([C@H]2C[C@H](O)[C@@H](CO)O2)cc1CCCCC[18F]  bucket B
7  O=c1[nH]c(=O)n([C@@H]2O[C@H](CO)[C@@H](O)[C@@H]2F)cc1CCCC[18F]  bucket B
8  O=c1[nH]c(=O)n([C@@H]2O[C@H](CO)[C@@H](O)[C@@H]2F)cc1/C=C/[123I]  bucket C
9  O=c1[nH]c(=O)n([C@@H]2O[C@H](CO)[C@@H](O)[C@@H]2F)cc1CCCCC[18F]  bucket C
